molecular target: Potassium voltage-gated channel subfamily KQT member 2 (Rattus norvegicus); assay: rat KCNQ2 channel inhibitors, SAR follow-up, orthogonal assay, automated electrophysiology, CHO cells (AID 602271); settings: automated patch clamp current, at 30 µM (top of the series)
Active and inactive are the calls of the source.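 The calls were made as follows: active = changes KCNQ2 potassium channel current, up or down, at some tested dose, giving a fitted dose response; inactive = no effect at any dose or no dose response.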
parameter_measured: current change %, negative = inhibition

Solved cases (5 shown):
CCC(C(=O)N(C)c1ccccc1N1CCCC1)c1ccccc1 (stereo unspecified) = inactive
CCN(C)c1ccccc1NC(=O)Cc1cccc(Cl)c1 = inactive
CN(C(=O)Cc1ccccc1)c1ccccc1N1CCCC1 = inactive
O=C(Cc1cccc(Cl)c1)Nc1cccc2c1OCO2 = inactive
O=C(Cc1cccc(Cl)c1)Nc1ccccc1N1CCOCC1 = inactive

--- query ---
Which value of current change %, negative = inhibition has been reported for O=C(Cc1cccc(Cl)c1)Nc1ccc(F)cc1F in the records? inactive
